Measured Target: HCV NS5B (Hepatitis C virus genotype 1b, UniProt Q9WMX2)
Construct: fusion protein, of which the carboxyl terminal 21 amino acids were removed to enhance its solubility; His tag (GSHHHHHH); made in house; host or cells: E. coli
Assay Procedure: Inhibition of viral RNA-dependent RNA polymerase (RdRp), in vitro biochemical assay
Design: species or system HCV genotype 1b virus (BB7)
Study Conditions: HCV NS5B RdRp, BB7 genotype 1b; read-out: HCV pol-BB7 IC50
pIC50: −log10 of the molar value.
Measure: pIC50

The examples below pair each entry with its known result.
CNC(=O)c1c(-c2ccc(F)cc2)oc2cc(N(C(C)C)S(C)(=O)=O)c(OC(C)C)cc12	≥ 6.30
CNC(=O)c1c(-c2ccc(F)cc2)oc2cc(S(=O)(=O)NC3CCC3)c(OC(C)C)cc12	5.30 to 6.30
CNC(=O)c1c(-c2ccc(F)cc2)oc2cc(NCC(O)CO)c(OC(C)C)cc12 (centres unmarked)	5.30 to 6.30
CNC(=O)c1c(-c2ccc(F)cc2)oc2cc(N3CCCS3(=O)=O)c(OC(C)C)cc12	5.30 to 6.30
CNC(=O)c1c(-c2ccc(F)cc2)oc2cc(NCCN3CCOCC3)c(OC(C)C)cc12	5.30 to 6.30
CNC(=O)c1c(-c2ccc(F)cc2)oc2cc(NS(C)(=O)=O)c(OC)cc12	≥ 6.30

Q: Reported pIC50 for "CNC(=O)c1c(-c2ccc(F)cc2)oc2cc(N(C3CCCC3)S(C)(=O)=O)c(OC(C)C)cc12" : what is it?
Result: ≥ 6.30

Q: For the compound shown here, "CNC(=O)c1c(-c2ccc(F)cc2)oc2cc(S(=O)(=O)N(C)C)c(OC(C)C)cc12" , give the reported pIC50.
Result: ≥ 6.30

* * *

Measured Target: HCV NS5B (Hepatitis C virus genotype 1b, UniProt Q9WMX2)
Construct: fusion protein, of which the carboxyl terminal 21 amino acids were removed to enhance its solubility; His tag (GSHHHHHH); made in house; host or cells: E. coli
Assay Procedure: Inhibition of viral RNA-dependent RNA polymerase (RdRp), in vitro biochemical assay
Set-up: species or system HCV genotype 1b virus (BB7)
Study Conditions: HCV NS5B RdRp, BB7; class symbols A-D; read-out: HCV pol-BB7 IC50
Measure: IC50

Some solved cases for reference:
CNC(=O)c1c(-c2ccc(F)cc2)oc2cc(N3CCOCC3)c(OC(C)c3nccs3)cc12 (stereo not shown)	≤ 500 nM
CNC(=O)c1c(-c2ccc(F)cc2)oc2cc(N(CC3CC3)S(C)(=O)=O)c(OC)cc12	≤ 500 nM
CNC(=O)c1c(-c2ccc(F)cc2)oc2cc(N(Cc3nnnn3C)S(C)(=O)=O)c(OC(C)C)cc12	≤ 500 nM

We next turn to a different compound, shown below.
Q: API: value(readout=IC50, system=HCV NS5B (Hepatitis C virus genotype 1b, UniProt Q9WMX2)) for record "CNC(=O)c1c(-c2ccc(F)cc2)oc2cc(N(C)S(C)(=O)=O)c(OCc3ccc4c(c3)OC(C)(C)OC4=O)cc12"
Result: ≤ 500 nM

* * *

Known pEC50 of a selection of compounds
Test system: HCV replicon (BB7 sequence) in Huh-7-Clone A cells
Assay Procedure: HCV replicon assay: ELISA of NS5A protein in replicon-containing cells (Inhibition of Viral RNA Replication)
Assay type: cell-based
Study Conditions: Hepatitis C virus; HCV replicon assay; ranges of EC50; read-out: Replicon
pEC50: −log10 of the molar value.

Q: Fill in: pEC50 of "CNC(=O)c1c(-c2ccc(F)cc2)oc2cc(N(Cc3nnnn3C)S(C)(=O)=O)c(OC(C)C)cc12" is ___
Result: > 6.00

Q: Entry CNC(=O)c1c(-c2ccc(F)cc2)oc2cc(C3(C)CNC(=O)O3)c(OC(C)C)cc12 (stereo not shown) : reported pEC50 = ?
Result: > 6.00

Q: Which pEC50 value is on record for "CNC(=O)c1c(-c2ccc(F)cc2)oc2cc(N3CCOCC3)c(OCc3cccc(C(=O)OC)c3)cc12" ?
Result: > 5.00

Q: Could you tell me which pEC50 is on file for CNC(=O)c1c(-c2ccc(F)cc2)oc2cc(C3CCN(S(C)(=O)=O)C3)c(OC)cc12 (stereo not shown) ?
Result: > 6.00

Q: Endpoint output: pEC50 of "CNC(=O)c1c(-c2ccc(F)cc2)oc2cc(N(CC3CC3)S(C)(=O)=O)c(OC)cc12" . Value?
Result: > 6.00

Q: For the compound shown here, "CNC(=O)c1c(-c2ccc(F)cc2)oc2cc(N(Cc3ccc(OC)cc3)S(C)(=O)=O)c(OC(C)C)cc12" , give the reported pEC50.
Result: > 6.00

Q: Name the reported pEC50 value associated with the compound "CNC(=O)c1c(-c2ccc(F)cc2)oc2cc(-c3nnc[nH]3)c(OC(C)C)cc12"
Result: > 4.52

Q: Sample "CCNc1cc2oc(-c3ccc(F)cc3)c(C(=O)NC)c2cc1OCCCOCC" — what was its pEC50?
Result: > 6.00

Q: I am curious: what pEC50 value has been reported for "CCN(c1cc2oc(-c3ccc(F)cc3)c(C(=O)NC)c2cc1O)S(C)(=O)=O" ?
Result: > 5.00

Q: Which value of pEC50 has been reported for "CNC(=O)c1c(-c2ccc(F)cc2)oc2cc(-c3c(C)noc3COC)c(OC)cc12" in the records?
Result: > 6.00

Q: Could you share which pEC50 value was measured for CNC(=O)c1c(-c2ccc(F)cc2)oc2cc(C3CCCN3S(C)(=O)=O)c(OC)cc12 (stereo not shown) ?
Result: > 6.00

Q: Any idea what pEC50 was measured for "CCc1cc2c(C(=O)NC)c(-c3ccc(F)cc3)oc2cc1C(C)(C)O" ?
Result: > 6.00

Q: Give its pEC50 value. Item: "CNC(=O)c1c(-c2ccc(F)cc2)oc2cc(C(C)=O)c(OC)cc12"
Result: > 6.00

Q: Look up pEC50: "CNC(=O)c1c(-c2ccc(F)cc2)oc2cc(N(C(C)=O)S(C)(=O)=O)c(OC)cc12"
Result: > 6.00

Q: Item "C=CCOc1cc2c(C(=O)NC)c(-c3ccc(F)cc3)oc2cc1NCC" has what recorded pEC50?
Result: > 6.00

Q: Please give the measured pEC50 for this compound: "CCOC(=O)c1csc(CN(c2cc3oc(-c4ccc(F)cc4)c(C(=O)NC)c3cc2OC(C)C)S(C)(=O)=O)n1"
Result: > 5.00

* * *

Test system: HCV replicon (BB7 sequence) in Huh-7-Clone A cells
Assay Procedure: HCV replicon assay: ELISA of NS5A protein in replicon-containing cells (Inhibition of Viral RNA Replication)
Format: cell-based
Study Conditions: Hepatitis C virus; HCV replicon assay; ranges of EC50; read-out: Replicon
Measure: EC50

Example entries and their recorded answers appear below.
CNC(=O)c1c(-c2ccc(F)cc2)oc2cc(-c3cc(C)on3)c(OC(C)C)cc12 [Example 283]	< 1000 nM
CCOC(=O)c1ccc(NC(=O)COc2cc3c(C(=O)NC)c(-c4ccc(F)cc4)oc3cc2N(C)S(C)(=O)=O)cc1 [Example 359]	< 10000 nM
CNC(=O)c1c(-c2ccc(F)cc2)oc2cc(N(C)S(C)(=O)=O)c(OCc3cscn3)cc12 [Example 319]	< 1000 nM

Q: If you can, please state the reported EC50 value of CNC(=O)c1c(-c2ccc(F)cc2)oc2cc(N(C)S(C)(=O)=O)c(OCc3ccccc3OC(F)F)cc12 [Example 347] .
Result: < 1000 nM

Q: Quick check: EC50 of CNC(=O)c1c(-c2ccc(F)cc2)oc2cc(N(C)S(C)(=O)=O)c(OCc3cccc(C(=O)O)c3)cc12 [Example 312] ?
Result: < 1000 nM

Q: Value lookup for EC50; key = CNC(=O)c1c(-c2ccc(F)cc2)oc2cc(N(Cc3nccs3)S(C)(=O)=O)c(OC(C)C)cc12 [Example 285]
Result: < 1000 nM

Q: Need EC50 of CNC(=O)c1c(-c2ccc(F)cc2)oc2cc(C3CNC(=O)C3)c(OC)cc12 (centres unmarked) [Example 315] , thanks.
Result: < 10000 nM

Q: I have this compound here, CNC(=O)c1c(-c2ccc(F)cc2)oc2cc(N(C)S(C)(=O)=O)c(OCc3ccc(S(C)(=O)=O)cc3)cc12 [Example 353] , and I need its recorded EC50.
Result: < 1000 nM

Q: Suppose we examine the compound CCN(C)c1cc2oc(-c3ccc(F)cc3)c(C(=O)NC)c2c(Cl)c1OC [Example 362] ; what EC50 value has been reported?
Result: < 10000 nM

Q: Consider the compound CCc1cc2c(C(=O)NC)c(-c3ccc(F)cc3)oc2cc1N(CCOC)S(C)(=O)=O [Example 335] and give its measured EC50.
Result: < 1000 nM

Q: Which EC50 reading was recorded for the compound CNC(=O)c1c(-c2ccc(F)cc2)oc2cc(C(C)=O)c(C)cc12 [Example 301] ?
Result: < 10000 nM

Q: Endpoint output: EC50 of CNC(=O)c1c(-c2ccc(F)cc2)oc2cc(N(C)S(C)(=O)=O)c(OCc3csc(C)n3)cc12 [Example 320] . Value?
Result: < 1000 nM
